B1: C22orf15 (parent)
chain: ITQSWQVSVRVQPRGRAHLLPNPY

variants of: B1; assay: protein stability index of a GFP-peptide fusion (GPS, HEK-293T) (PSI 1-6); higher = more stable; details: c terminus: a fixed tail appended;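 note: lentivirally expressed fusions sorted by FACS into six bins by GFP to DsRed ratio, PSI derived from sequencing read proportions per bin multiplied by bin number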
Hi, to clarify the labels: class 1 covers protein stability index from 2 upward, class 0 covers anything below 2.

- mutation list: "Y24H"
  assigned label: "class 0"

Now consider a different variant.
Ask: Check this variant for protein stability index at or above 2: `P21H`
Result: class 1
